assayed.target: SIX1 homeodomain (reference allele) (human, UniProt Q15475 108-198)
Sequence: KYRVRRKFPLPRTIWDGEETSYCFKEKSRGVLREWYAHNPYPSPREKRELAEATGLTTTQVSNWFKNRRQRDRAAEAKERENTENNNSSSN
protocol.summary: universal protein binding microarray; Universal all-10-mer PBM (8x60K, AMADID 030236), 300 nM GST-tagged protein, Alexa Fluor 488 anti-GST; buffer, salt, pH and temperature not stated (as in Berger); high values mean tight binding
test.settings: protein: ivt; tags: N-terminal GST; dsDNA, one strand shown
In all, about 33,000 sequences were measured (“e-score”: median about -0.053, highest 2% from about 0.38 on). The full list was thinned out, with the highest values kept by preference.
sequences and their reported binding signal
measured.parameter: binding signal (E-score)

> print(dat)
    sequence.data  measured.parameter  reported.measurement
 1       AGCGGGAT      binding signal                 0.289
 2       ATCTGTCA      binding signal                 0.208
 3       ATCAGGGG      binding signal                 0.307
 4       TACACGGA      binding signal                 0.173
 5       CGTATAAA      binding signal                 0.219
 6       TCCATACA      binding signal                 0.166
 7       CACTGAGA      binding signal                 0.188
 8       ATACTAGG      binding signal                 0.275
 9       GACTGATA      binding signal                   0.4
10       AGGATAGG      binding signal                 0.306
11       GTCAGATA      binding signal                 0.273
12       CTTGTATC      binding signal                 0.266
13       ATACTAAG      binding signal                 0.209
14       AATAACAC      binding signal                 0.151
15       GTATATGA      binding signal                 0.225
16       GAATATCA      binding signal                 0.366
17       GATCGGAC      binding signal                 0.248
18       AAATATCA      binding signal                 0.224
19       CGTGTATC      binding signal                 0.404
20       ATATTCAG      binding signal                 0.164
21       GACGTATA      binding signal                 0.213
22       AGTGTACC      binding signal                  0.16
23       TATCCCAA      binding signal                 0.329
24       CTCAATAC      binding signal                 0.259
25       GGATATGA      binding signal                 0.356
26       GAAGATCC      binding signal                 0.297
27       AACCCATA      binding signal                 0.263
28       CGGGATCC      binding signal                 0.393
29       CACGTATC      binding signal                 0.433
30       AGTATCCC      binding signal                 0.412
31       CTGATAGC      binding signal                 0.319
32       GATCAGCA      binding signal                 0.235
33       AGTGTATA      binding signal                 0.291
34       ATCCCTAC      binding signal                 0.307
35       GTATATCA      binding signal                 0.429
36       GTCTGATA      binding signal                 0.294
37       ATATATCA      binding signal                   0.4
38       CTTGATCA      binding signal                 0.218
39       ATAGCACA      binding signal                 0.169
40       CTCAGATC      binding signal                  0.27
41       GATCATTA      binding signal                 0.348
42       CATGATCA      binding signal                 0.177
43       AGTATGAT      binding signal                 0.282
44       AATATCTG      binding signal                 0.188
45       ATATATCG      binding signal                 0.372
46       ATGATAGG      binding signal                 0.387
47       ATGAGAAG      binding signal                 0.176
48       ATTGATCC      binding signal                 0.406
49       ACCTATCT      binding signal                 0.195
50       ATTATCCC      binding signal                 0.274
51       ATCACCAC      binding signal                 0.262
52       AACTGATA      binding signal                 0.409
53       GAGGTGTA      binding signal                 0.233
54       CATGTATA      binding signal                 0.223
55       ACGATAGG      binding signal                 0.269
56       CAATACGA      binding signal                 0.207
57       GATGATCC      binding signal                 0.454
58       AGCTGATA      binding signal                 0.357
59       CTATATCA      binding signal                 0.412
60       GAAATATC      binding signal                 0.262
61       ATGATCGC      binding signal                 0.265
62       ATGAGACC      binding signal                 0.295

----------
assayed.target: SIX1 homeodomain (reference allele) (human, UniProt Q15475 108-198)
Sequence: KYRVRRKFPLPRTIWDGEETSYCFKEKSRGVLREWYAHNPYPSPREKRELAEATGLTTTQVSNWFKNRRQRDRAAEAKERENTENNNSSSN
protocol.summary: universal protein binding microarray; Universal all-10-mer PBM (8x60K, AMADID 030236), 300 nM GST-tagged protein, Alexa Fluor 488 anti-GST; buffer, salt, pH and temperature not stated (as in Berger); high values mean tight binding
test.settings: protein: ivt; tags: N-terminal GST; dsDNA, one strand shown
In all, about 33,000 sequences were measured (“e-score”: median about -0.053, highest 2% from about 0.38 on). This excerpt belongs to a sample that is enriched for the highest values.
This listing pairs sequences with measured binding signal.
measured.parameter: binding signal (E-score)

> print(dat)
   sequence.data  unit.string  reported.measurement
1       GGTGTTGA      E-score                 0.258
2       ATCCGGTG      E-score                 0.405
3       CGGATAGA      E-score                 0.355
4       ATCCGGGC      E-score                 0.356

----------
assayed.target: SIX1 homeodomain (reference allele) (human, UniProt Q15475 108-198)
Sequence: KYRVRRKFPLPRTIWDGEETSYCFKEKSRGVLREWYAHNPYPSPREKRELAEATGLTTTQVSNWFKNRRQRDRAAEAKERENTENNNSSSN
protocol.summary: universal protein binding microarray; Universal all-10-mer PBM (8x60K, AMADID 030236), 300 nM GST-tagged protein, Alexa Fluor 488 anti-GST; buffer, salt, pH and temperature not stated (as in Berger); high values mean tight binding
test.settings: protein: ivt; tags: N-terminal GST; dsDNA, one strand shown
Whole data set: some 33,000 sequences, median “e-score” near -0.053, cut for the highest 2% near 0.38. This is one part of a sample in which the highest values are shown more often than they occur.
measured.parameter: binding signal (E-score)

> print(dat)
    sequence.data  measured.parameter  reported.measurement
 1       GGTATGGA      binding signal                 0.252
 2       ACATATGA      binding signal                 0.166
 3       ATACTTAG      binding signal                 0.205
 4       CCATATAA      binding signal                 0.155
 5       CCGGATGA      binding signal                 0.275
 6       TATCCACA      binding signal                 0.326
 7       AATCCGGT      binding signal                 0.252
 8       GATCCGGC      binding signal                 0.393
 9       GTATACGA      binding signal                 0.308
10       ATCACTTC      binding signal                   0.3
11       GCATATAC      binding signal                 0.227
12       CGTATTGA      binding signal                  0.23
13       TACAGGTA      binding signal                 0.244
14       GATCGGGA      binding signal                 0.314
15       AACTGGAT      binding signal                 0.172
16       AGAGATCA      binding signal                 0.302
17       CGTATAGA      binding signal                  0.28
18       TCCGATCA      binding signal                 0.212
19       AGTATTAC      binding signal                 0.188
20       GCTATCGA      binding signal                 0.253
21       GAATATCC      binding signal                 0.276
22       CATCCGAC      binding signal                 0.209
23       AAGTATTG      binding signal                 0.157
24       CGTATCGA      binding signal                 0.398
25       CCAGATCA      binding signal                  0.39
26       GGTATTAC      binding signal                 0.385
27       GGAGATCA      binding signal                 0.386
28       ACATATTA      binding signal                 0.161
29       CTCCATCA      binding signal                 0.157
30       TCATATGA      binding signal                 0.303
31       AATCCGGC      binding signal                 0.228
32       CCATATTA      binding signal                 0.265
33       ACACCTGA      binding signal                 0.281
34       AGTATTGA      binding signal                 0.193
35       CCGGATTA      binding signal                 0.351

Every entry's value here was drawn from paper PMC10668032.
